TEST TARGET: PD-1 antigen (ELISA of Example 2) (human, UniProt Q15116 25-167, limits assumed)
Sequence (Q15116 25-167 limits assumed): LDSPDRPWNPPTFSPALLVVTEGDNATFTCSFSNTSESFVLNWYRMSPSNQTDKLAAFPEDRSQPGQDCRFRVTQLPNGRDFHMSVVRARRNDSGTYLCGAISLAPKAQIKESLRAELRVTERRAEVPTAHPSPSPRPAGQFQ
TEST METHOD NOTES: ELISA, signal on PD-1 antigen; also: test concentration or dose not given here
MEASURE NAME: ELISA A

a: 2PD8 (VHH, PD-1 VHH) VHH: QVQLQESGGGSVQAGDSLRLSCTASGRTFSSLGMGWFRQAPGKEREFVSAIAWNGASTYYTESVKGRFTISRDDAKNTVYLQMNSLKPTDTAVYFCAASGLGSVVVTANEYDYWGQGTQVTVSS
b: 2PD-16 (VHH, PD-1 VHH) VHH: QVQLQESGGGLVQAGGSLRLSCAASGGFNRVSYMGWYRQAPGTKRELVASVTSGGEITIADSVKGRFTVSRDNSKNTLYLQMNGLKPEDGATYWCNADIWVSDARMYNYWGQGTQVTVSS
QUERY: Identify the item whose ELISA A is the smaller number: a or b // caller expects the label of the chosen entry
RESULT: a

a: 2PD71 (VHH, PD-1 VHH) VHH: QVQLQESGGGLVQTGESLRLSCAASGGFNRVSYMGWYRQAPGSKRELVASVTSGGEITVADSVKGRFTVSRDNNKNTLYLQMNGLKPEDGATYWCNADIWVSDARMYNYWGQGTQVTVSS
b: 2PD-12 (VHH, PD-1 VHH) VHH: QVQLQESGGGLVQAGGSLRLSCAVSGFILDYYGIGWFRQAPGKEREAVSCISSSDGSTYYADSVKGRFTISRDNALNTLYLQMNSLKPEDTAVYHCATATLCDGGIWGYWGQGTQVTVSS
QUERY: Identify the item whose ELISA A is the smaller number: a or b // caller expects the label of the chosen entry
RESULT: a
